Recorded IC50 for the following compounds
target: HLA-C0303 (Homo sapiens, UniProt P10321, A176E/A330V/A97T/C25G/C350S/D114A/D33Y/E197K/G115R/L119I/L127V/L171W/L218V/M285V/M309V/M331V/P208H/Q277E/Q291P/R243W/R45H/S123Y/S140Y/S297R/S48A/T118I/T187L/T329A/T363A/V319A); assay: Competitive peptide binding assay, CIR-C0303; conditions: HMy2.CIR-C0303 cells, reference Cy5-[…], class from inhibition at 5 and 15 μM, flow cytometry MFI; read-out: Binding affinity with HLA-C0303
Peptide text beside a SMILES is read from it.
recordedEndpoint: IC50

>>> result("CSCC[C@H](NC(=O)[C@H](CO)NC(=O)[C@H](CCC(N)=O)NC(=O)[C@H](CCC(N)=O)NC(=O)[C@H](CC(C)C)NC(=O)[C@H](CCC(N)=O)NC(=O)[C@H](CCCCN)NC(=O)[C@H](CO)NC(=O)[C@@H](N)Cc1ccccc1)C(=O)O [Epitope M14] (H-FSKQLQQSM-OH; N-terminus and C-terminus assumed)")
"< 5 µM"
>>> result("CC[C@H](C)[C@H](N)C(=O)N[C@@H](C)C(=O)N[C@@H](CCSC)C(=O)N[C@@H](C)C(=O)N[C@@H](CS)C(=O)N[C@@H](CC(C)C)C(=O)N[C@H](C(=O)NCC(=O)N[C@@H](CC(C)C)C(=O)O)C(C)C [Epitope M44] (H-IAMACLVGL-OH; N-terminus and C-terminus assumed)")
"> 15 µM"
>>> result("CC[C@H](C)[C@H](NC(=O)[C@@H](NC(=O)[C@H](CC(N)=O)NC(=O)[C@H](CCCNC(=N)N)NC(=O)[C@H](CCCCN)NC(=O)[C@@H](NC(=O)[C@H](Cc1ccc(O)cc1)NC(=O)[C@H](C)NC(=O)[C@@H](N)Cc1ccccc1)[C@@H](C)O)C(C)C)C(=O)O [Epitope M23] (H-FAYTKRNVI-OH; N-terminus and C-terminus assumed)")
"< 5 µM"

====

Recorded IC50 for the following compounds
molecular target: HLA-B1501 (Homo sapiens, UniProt P01889, A329T/A93T/A95T/C349S/D201E/D98Y/E187L/E204Q/E69M/E70A/K202T/N87E/Q94N/R155S/R180W/S121R/S35A/S48A/V306I/V36M/Y140S/Y91S); test: Competitive peptide binding assay, CIR-B1501; details: HMy2.CIR-B1501 cells, reference Cy5-[…], class from inhibition at 5 and 15 μM, flow cytometry MFI; read-out: Binding affinity with HLA-B1501
Peptide text beside a SMILES is read from it.
recordedEndpoint: IC50

>>> result("CC(C)[C@H](NC(=O)[C@H](CC(N)=O)NC(=O)[C@H](Cc1ccc(O)cc1)NC(=O)[C@H](C)NC(=O)[C@@H](N)CCCCN)C(=O)N[C@H](C(=O)N[C@@H](CCC(N)=O)C(=O)N[C@@H](C)C(=O)N[C@@H](Cc1ccccc1)C(=O)O)[C@@H](C)O [Epitope Y62] (H-KAYNVTQAF-OH)")
"5 to 15 µM"
>>> result("CC(C)C[C@H](NC(=O)[C@@H](N)CCC(N)=O)C(=O)N[C@H](C(=O)N1CCC[C@H]1C(=O)N[C@H](C(=O)N[C@@H](Cc1c[nH]c2ccccc12)C(=O)N[C@@H](CCCNC(=N)N)C(=O)N[C@H](C(=O)N[C@@H](Cc1ccc(O)cc1)C(=O)O)C(C)C)[C@@H](C)O)[C@@H](C)O [Epitope Y175] (H-QLTPTWRVY-OH; N-terminus and C-terminus assumed)")
"> 15 µM"
>>> result("CC(C)C[C@H](NC(=O)[C@H](CCC(=O)O)NC(=O)[C@H](CCCCN)NC(=O)[C@H](Cc1ccccc1)NC(=O)[C@H](CO)NC(=O)[C@@H](N)CC(C)C)C(=O)N[C@@H](CC(C)C)C(=O)N[C@H](C(=O)N[C@@H](Cc1ccc(O)cc1)C(=O)O)C(C)C [Epitope Y142] (H-LSFKELLVY-OH; N-terminus and C-terminus assumed)")
"5 to 15 µM"
>>> result("C[C@H](NC(=O)[C@H](CO)NC(=O)[C@@H](N)CCCCN)C(=O)NCC(=O)N[C@@H](Cc1ccccc1)C(=O)N1CCC[C@H]1C(=O)N[C@@H](Cc1ccccc1)C(=O)N[C@@H](CC(N)=O)C(=O)N[C@@H](CCCCN)C(=O)N[C@@H](Cc1c[nH]c2ccccc12)C(=O)O [Epitope Y306] (H-KSAGFPFNKW-OH; N-terminus and C-terminus assumed)")
"> 15 µM"
>>> result("CC[C@H](C)[C@H](NC(=O)[C@H](CC(C)C)NC(=O)[C@H](CS)NC(=O)CNC(=O)[C@H](C)NC(=O)[C@H](CCCNC(=N)N)NC(=O)[C@@H](NC(=O)[C@H](CCC(N)=O)NC(=O)[C@@H](N)Cc1ccccc1)[C@@H](C)O)C(=O)O [Epitope Y89] (H-FQTRAGCLI-OH; N-terminus and C-terminus assumed)")
"> 15 µM"
>>> result("C[C@H](NC(=O)[C@H](Cc1ccc(O)cc1)NC(=O)[C@H](C)NC(=O)[C@@H](N)Cc1ccccc1)C(=O)N[C@@H](CC(N)=O)C(=O)N[C@@H](CCCNC(=N)N)C(=O)N[C@@H](CC(N)=O)C(=O)N[C@@H](CCCNC(=N)N)C(=O)N[C@@H](Cc1ccccc1)C(=O)O [Epitope Y49] (H-FAYANRNRF-OH; N-terminus and C-terminus assumed)")
"> 15 µM"

====

biological target: HLA-C1402 (Homo sapiens, UniProt P10321, A176E/A330V/A35S/A97T/C350S/D114A/D33S/L171W/L180R/L218V/M285V/M309V/M331V/P208H/Q277E/Q291P/R121W/R243W/S123F/S297R/S48A/T329A/T363A/V319A); experiment: Competitive peptide binding assay, CIR-C1402; conditions: HMy2.CIR-C1402 cells, reference Cy5-[…], class from inhibition at 5 and 15 μM, flow cytometry MFI; read-out: Binding affinity with HLA-C1402
pIC50: −log10 of the molar value. Peptide text beside a SMILES is read from it.
recordedEndpoint: pIC50

>>> result("CC(C)[C@H](NC(=O)CNC(=O)[C@H](Cc1c[nH]cn1)NC(=O)[C@@H]1CCCN1C(=O)[C@H](C)NC(=O)[C@H](CO)NC(=O)[C@@H](N)CCC(N)=O)C(=O)N[C@H](C(=O)N[C@@H](Cc1ccccc1)C(=O)O)C(C)C [Epitope M69] (H-QSAPHGVVF-OH; N-terminus and C-terminus assumed)")
"< 4.82"
>>> result("CC(C)[C@H](NC(=O)[C@@H](NC(=O)[C@H](Cc1ccccc1)NC(=O)[C@@H]1CCCN1C(=O)[C@@H](NC(=O)CNC(=O)[C@H](CC(=O)O)NC(=O)[C@@H](NC(=O)[C@@H](N)Cc1ccccc1)C(C)C)C(C)C)C(C)C)C(=O)O [Epitope M96] (H-FVDGVPFVV-OH; N-terminus and C-terminus assumed)")
"4.82 to 5.30"
>>> result("CC[C@H](C)[C@H](NC(=O)[C@H](CC(N)=O)NC(=O)[C@H](CC(=O)O)NC(=O)[C@H](CO)NC(=O)[C@H](CO)NC(=O)[C@@H](N)CO)C(=O)N[C@@H](C)C(=O)N[C@@H](CC(C)C)C(=O)N[C@@H](CC(C)C)C(=O)O [Epitope M111] (H-SSSDNIALL-OH; N-terminus and C-terminus assumed)")
"< 4.82"

====

Recorded pIC50 for the following molecules
target: HLA-C0801 (Homo sapiens, UniProt P10321, A176T/A330V/A97T/C350S/D114A/D138N/D33Y/E201K/E299G/L171W/L218V/M285V/M309V/M331V/P208H/Q277E/Q291P/R59Q/S123Y/S140F/S297R/S48A/T329A/T363A/V319A/V328M); assay: Competitive peptide binding assay, CIR-C0801; conditions: HMy2.CIR-C0801 cells, reference Cy5-[…], class from inhibition at 5 and 15 μM, flow cytometry MFI; read-out: Binding affinity with HLA-C0801
pIC50: −log10 of the molar value. Peptide text beside a SMILES is read from it.
recordedEndpoint: pIC50

>>> result("CC[C@H](C)[C@H](NC(=O)[C@H](C)NC(=O)[C@H](C)NC(=O)[C@H](CC(N)=O)NC(=O)CNC(=O)[C@H](CC(=O)O)NC(=O)[C@H](CCC(N)=O)NC(=O)[C@H](C)NC(=O)[C@@H](N)Cc1ccccc1)C(=O)O [Epitope M22] (H-FAQDGNAAI-OH; N-terminus and C-terminus assumed)")
"> 5.30"
>>> result("CC[C@H](C)[C@H](NC(=O)[C@H](CCCNC(=N)N)NC(=O)[C@H](CO)NC(=O)[C@H](CCSC)NC(=O)CNC(=O)[C@@H](N)Cc1ccccc1)C(=O)NCC(=O)N[C@@H](CCSC)C(=O)N[C@@H](CCC(=O)O)C(=O)N[C@H](C(=O)O)C(C)C [Epitope M19] (H-FGMSRIGMEV-OH; N-terminus and C-terminus assumed)")
"< 4.82"
>>> result("CC(C)[C@H](NC(=O)[C@@H](N)Cc1ccccc1)C(=O)N[C@@H](CO)C(=O)N[C@@H](CC(N)=O)C(=O)NCC(=O)N[C@H](C(=O)N[C@@H](Cc1c[nH]cn1)C(=O)N[C@@H](Cc1c[nH]c2ccccc12)C(=O)N[C@@H](Cc1ccccc1)C(=O)O)[C@@H](C)O [Epitope M68] (H-FVSNGTHWF-OH; N-terminus and C-terminus assumed)")
"< 4.82"
